The origin of these recorded values is the supplement of paper PMC9170038.

Test system: MS2 coat protein
METHOD_SUMMARY: apparent KD of MS2 coat protein, switch ON state; designed switch direction (-1 OFF switch, 1 ON switch): 1; higher = weaker reporter binding
CONDITIONS: FMN input: 0 or 200 uM; Eterna round: R93 (includes R88 designs)
Label scheme, based on apparent KD of MS2 coat protein: low group (below 20 nM), middle group (20 nM to below 40 nM), high group (40 nM or more)

* AGAAAAAAAACGCAGGAUAUCCAAAAGAAAACAUGAGGAUCACCCAUGUAAAAGAAAAUAAAAUGGGAGAAGGGCGAAAAAAAGA [Mat - Same State 2 - Eli mod - D93] | low group
* AAUAAUUAUACGAAGGAUAUCGGUAAUUAGACAUGAGGAUCACCCAUGUAAUAUGGUUAAAUAAUCGAGAAGGUCGAGGGUGAAA [JR_SS002_Sub503] | high group
* GGCUGCAAUUAUGAGGAUAUGUUUGGAUGAACAUGAGGAUCACCCAUGUGGCGAUAGCCGUCUAUGCAGAAGGUGUAGUGGCGGC [Ertion] | middle group
* AAGAAUGUUUACGAGGAUAUGUUCCGCAGAACAUGAGGAUCACCCAUGUGAACAAGAAAGGCGACGCAGAAGGCGUGAGCAAAGA [Laatreve] | high group
* AAAUAAAGGACUGAGGAUAUACCACAUGAAACAUGAGGAUCACCCAUGUUAAAAAACAAAGGGUGGUAGAAGGCAGUCCACAAAC [Same State 2.5f ( so lets mod hyphema)] | low group
* GUGGCCCAGGCACAGGAUAUGUUUCUCGUAACAUGAGGAUCACCCAUGUGCCUAUGAGAUUUAAUGCAGAAGGGUGCACGCCACG [Atiinbe] | low group
* CGAAAGGAGAGAGAGGAUAUCCAAAGGAAAACAUGAGGAUCACCCAUGUAGAAGGUAGGAGAUUGGGAGAAGGCUCAAGCAAAAG [salish99-ss2-155] | middle group
* AAAAUACAUGAGGAUCACCCAUGUGAAAAUAUGGGAGGAUAUACCGAAAAAAAAAAAACGGUAGAAGGCCCAAAAA [SS! 1 MT 7] | low group
* GGAGAACAUGAGGAUCACCCAUGUCGGAGAAGGCGAGGAUAUCGAAGGAGGAAGGAAGGACGAGAAGGCGCGGCAG [salish99-SS1-01] | low group
* AGGAGACAUGAGGAUCACCCAUGUGCGAGGUGAAGAGGAUAUAGAAGAAGAAGAAAGAAACUAGAAGGCUUAAAAA [JR_SameState1_Sub1] | high group
* GAAAAACAUGAGGAUCACCCAUGUAGAGAUAUGGGAGGAUAUACGAAGACGAAAGACGAAGUAGAAGGCCUAAAAG [Garnet 58] | middle group
* AAAAAACAUGAGGAUCACCCAUGUCUUCGGACGUGAGGAUAUGUACAGACUUCGGUCUGUACAGAAGGCACAAAAA [SS1 - 1033] | middle group
* AAUAGGAAGAGAGAGGAUAUCCAAAGGAAAACAUGAGGAUCACCCAUGUAAAAGGUAGGAAAUUGGGAGAAGGCUCAAGAGAGAG [salish99-ss2-073] | low group
* AGGAAACAUGAGGAUCACCCAUGUAUAAAAAUGGAAGGAUAUACUAAGACGAAAGUCAUAGUAGAAGGUCUAAAAA [76%, Meechl, 10] | low group
